Assayed Target: T1, anti-DENV E protein antibody comprising a modified IgG heavy chain constant region (SEQ ID NO: 116)
T1 construct: also called anti-DENY E protein antibody; Fc-Mutated Antibody
T1 sequence (constant, as listed by the source limits assumed): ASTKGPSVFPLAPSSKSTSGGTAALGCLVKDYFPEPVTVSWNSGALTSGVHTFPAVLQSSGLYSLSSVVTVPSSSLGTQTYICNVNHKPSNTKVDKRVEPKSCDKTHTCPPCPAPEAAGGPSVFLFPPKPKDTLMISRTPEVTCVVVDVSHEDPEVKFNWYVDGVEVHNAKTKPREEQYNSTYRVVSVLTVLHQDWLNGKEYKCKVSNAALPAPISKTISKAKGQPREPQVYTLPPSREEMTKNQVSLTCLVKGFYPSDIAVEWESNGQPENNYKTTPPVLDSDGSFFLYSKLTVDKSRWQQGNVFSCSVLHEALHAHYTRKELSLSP
Test Protocol: SPR (Biacore T200), 25 C, pH 7.4; SKA antibody captured by anti-rabbit IgG, anti-DENV E protein antibody injected 0-400 nM
Property: kon (M⁻¹ s⁻¹)
Enter your answer as a number in M⁻¹ s⁻¹; do not include the unit.

Q. Quick one: kon for SKA0028 (antibody, V domains shown, Recombinant rabbit monoclonal from B-cell cloning, expressed in FreeStyle 293-F cells; the first screen used B-cell culture supernatant; also called Anti-SG115 Antibody; rabbit Anti Fc-Mutation Antibody) VH: QSVEESGGRLVTPGTPLTLTCTASGFTISSYHMSWVRQAPGKGLEWIGIIHGSGNMWYASWAKGRFTISRTSTTVDLEITSPTTEDTATYFCARIRFWASSNYYYFYLWGQGTLVTVSS VL: ALVMTQTPASVSEPVGGTVTINCQASQNIYSNLAWYQQKPGQRPRLLIYGASNLESGVPSRFRGSGSGTEFTLTISDLECADAATYYCQSAYWGNNNDGAFGGGTEVVVKG ?
A. 116000

Q. Quick one: kon for SKA0117 (antibody, V domains shown, Recombinant rabbit monoclonal from B-cell cloning, expressed in FreeStyle 293-F cells; the first screen used B-cell culture supernatant; also called Anti-SG115 Antibody; rabbit Anti Fc-Mutation Antibody) VH: QSLEESGGDLVKPEGSLTLTCTASGFSFSSSHYMCWVRQAPGKGLEWIACIYAGSSDNTYYASWAKGRFTISKTSSTTVTLQMTSLTAADTATYFCARDTYGYVGYASAGGFFNLWGPGTLVTVSS VL: ALVMTQTPASVSAAVGGTVTINCQASHNIYSVLAWYQQKPGQRPRLLIYGASNLESGVPSRFKGSGSGTEYTLTISDLECDDAATYYCQSAYYSSSTGDNAFGGGTEVVVKG ?
A. 126000
